cAMP Emax (%): recorded values
Biological target: T1, PTH/PTHrP receptor (P1R), wild-type, full-length (human, UniProt Q03431 27-593)
T1 sequence (looked up): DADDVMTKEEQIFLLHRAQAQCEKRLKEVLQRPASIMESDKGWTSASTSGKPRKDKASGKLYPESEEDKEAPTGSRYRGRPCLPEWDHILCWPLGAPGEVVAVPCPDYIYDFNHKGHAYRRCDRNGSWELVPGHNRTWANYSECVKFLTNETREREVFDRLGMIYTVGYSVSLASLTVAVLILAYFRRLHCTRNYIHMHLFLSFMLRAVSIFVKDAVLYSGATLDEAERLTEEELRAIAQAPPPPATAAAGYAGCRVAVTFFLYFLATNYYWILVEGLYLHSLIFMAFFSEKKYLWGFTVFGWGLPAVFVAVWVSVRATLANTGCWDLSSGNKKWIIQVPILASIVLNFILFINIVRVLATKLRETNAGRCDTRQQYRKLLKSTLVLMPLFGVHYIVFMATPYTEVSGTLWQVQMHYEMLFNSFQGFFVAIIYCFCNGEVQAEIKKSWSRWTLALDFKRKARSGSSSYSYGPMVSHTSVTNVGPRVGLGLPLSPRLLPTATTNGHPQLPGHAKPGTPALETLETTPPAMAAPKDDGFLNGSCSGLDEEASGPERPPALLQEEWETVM
Assay: cell-based or functional assay
No end group written: not given here.
Respond with the bare value in %.

Worked examples follow.
AVAEIQLMHAR-NH2 [[Ala^10]PTH(1-11)]    88
AVAEIALMHAR-NH2 [[Ala^6, Ala^10]PTH(1-11)]    41
AVAEIALMHQR-NH2 [[Ala^6]PTH(1-11)]    26

Okay, now this binder:
Record AVAEIQLMHQR-NH2 [PTH(1-11) (AlaValAlaGluIleGlnLeuMetHisGlnArg-amide)] , field cAMP Emax (%): 100
